src = patent US20230391760A1

- MEASURED_ON: GLP-1 Receptor (Homo sapiens)
- PROTOCOL_TEXT: GLP-1R agonist cAMP stimulation assay (HEK293/GLP1R/CRE-LUC cells, cAMP dynamic 2 Kit)
- EXPERIMENTAL_SETUP: HEK293/CRE-Luc cell line stably expressing the GLP-1 Receptor, 30 min at 37° C.
Classes (EC50): low value: < 0.07 nM; medium value: ≥ 0.07 nM and < 0.2 nM; high value: ≥ 0.2 nM

>  <COMPOUND>
O=c1[nH]c(-c2cc3nc(CN4CCC(c5cccc(OCc6ccc(Cl)cc6F)n5)CC4)n(C[C@@H]4CCO4)c3cn2)no1 [Compound 316a]

>  <ASSIGNED_CLASS>
low value

$$$$
>  <COMPOUND>
CC1(c2ccc(Cl)cc2F)Oc2cccc(C3CCN(Cc4nc5cc(-c6cn(CCC(=O)O)nn6)ccc5n4C[C@@H]4CCO4)CC3)c2O1 (some centres unmarked) [Compound 251a]

>  <ASSIGNED_CLASS>
medium value

$$$$
>  <COMPOUND>
Fc1cc(Cl)ccc1COc1cccc(C2CCN(Cc3nc4cc(-c5nnc[nH]5)ncc4n3C[C@@H]3CCO3)CC2)n1 [Compound 436a]

>  <ASSIGNED_CLASS>
high value

$$$$

Request: Which class holds CC1(c2ccc(Cl)cc2F)Oc2cccc(C3CCN(Cc4nc5cc(-c6n[nH]c(=O)[nH]6)ccc5n4C[C@@H]4CCO4)CC3)c2O1 (some centres unmarked) [Compound 355a] ?
Result: high value

Request: Entry CC1(c2ccc(F)cc2)Oc2cccc(C3CCN(Cc4nc5cc(-c6nnc(C(F)(F)F)[nH]6)ccc5n4C[C@@H]4CCO4)CC3)c2O1 (some centres unmarked) [Compound 258a] belongs to which category?
Result: medium value

====

- MEASURED_ON: GLP-1 Receptor (Homo sapiens, UniProt P43220)
- Sequence (P43220 24-463, species assumed): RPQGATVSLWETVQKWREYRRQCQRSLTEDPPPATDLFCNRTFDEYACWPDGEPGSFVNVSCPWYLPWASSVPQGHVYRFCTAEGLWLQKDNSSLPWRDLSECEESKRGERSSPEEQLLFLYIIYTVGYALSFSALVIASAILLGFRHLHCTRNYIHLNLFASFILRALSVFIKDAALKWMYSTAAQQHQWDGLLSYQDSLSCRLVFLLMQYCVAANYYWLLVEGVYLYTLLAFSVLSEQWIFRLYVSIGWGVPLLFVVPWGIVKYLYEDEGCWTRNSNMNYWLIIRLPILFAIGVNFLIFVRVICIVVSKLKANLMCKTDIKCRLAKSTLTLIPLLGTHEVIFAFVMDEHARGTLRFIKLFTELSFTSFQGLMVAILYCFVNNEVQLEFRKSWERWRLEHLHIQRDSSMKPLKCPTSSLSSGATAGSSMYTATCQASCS
- PROTOCOL_TEXT: GLP-1R agonist cAMP stimulation assay (HEK293/GLP1R/CRE-LUC cells, cAMP dynamic 2 Kit)
- EXPERIMENTAL_SETUP: HEK293/CRE-Luc cell line stably expressing the GLP-1 Receptor, 30 min at 37° C.
pEC50: −log10 of the molar value.
Threshold check on pEC50: at or above 10 gives true, strictly below gives false.

>  <MOLECULE>
C[C@H](Cn1c(CN2CCC(c3cccc4c3O[C@@](C)(c3ccc(Cl)cn3)O4)CC2)nc2cc(-c3nnc(C(F)(F)F)[nH]3)ncc21)OC(F)F [Compound 476a]

>  <ASSIGNED_CLASS>
false

$$$$

Request: Please check the record Fc1cc(Cl)ccc1COc1cc(C2=CCN(Cc3nc4cc(-c5nnc(C(F)(F)F)[nH]5)cnc4n3C[C@@H]3CCO3)CC2)ccc1F [Compound 294a] and state if its pEC50 is at or above 10.
Result: false

Request: Is the recorded value of pEC50 equal to or greater than 10 for this molecule? CC1(c2ccc(C#N)cc2F)Oc2cccc(C3CCN(Cc4nc5cc(-c6nnc(C(F)(F)F)[nH]6)ccc5n4C[C@@H]4CCO4)CC3)c2O1 (some centres unmarked) [Compound 261a]
Result: true

Request: Check if pEC50 >= 10 (inclusive). Item: Fc1cc(Cl)ccc1COc1nc(N2CCN(Cc3nc4cc(-c5nnc(C(F)(F)F)[nH]5)cnc4n3C[C@@H]3CCO3)CC2)ccc1F [Compound 516a]
Result: true

Request: pEC50 >= 10 for Fc1cc(Cl)ccc1COc1cccc(C2CCN(Cc3nc4cc(-n5cc(C6CCCOC6)nn5)ccc4n3C[C@@H]3CCO3)CC2)n1 (some centres unmarked) [Compound 211a] ?
Result: false

Request: Does pEC50 meet or surpass 10 for Fc1cc(Cl)ccc1C1COc2cccc(C3CCN(Cc4nc5cc(-c6nnc(C(F)(F)F)[nH]6)nnc5n4C[C@@H]4CCO4)CC3)c2O1 (some centres unmarked) [Compound 465a] ?
Result: false

Request: Threshold query (pEC50 >= 10) on C[C@]1(c2ccc(Cl)cc2F)Oc2cccc(C3CCN(Cc4nc5cc(-c6nnc(C(F)(F)F)[nH]6)ncc5n4CC4(C#N)CC4)CC3)c2O1 [Compound 345a]
Result: true

Request: Answer whether pEC50 of CC(=O)Nc1ccc2c(c1)nc(CN1CC=C(c3cccc(OCc4ccc(Cl)cc4F)n3)CC1)n2C[C@@H]1CCO1 [Compound 135a] is greater than or equal to 10.
Result: false

Request: Does the molecule CC1(c2ccc(Cl)cn2)Oc2c(F)ccc(C3CCN(Cc4nc5cc(-c6nnc(C(F)(F)F)[nH]6)nnc5n4C[C@@H]4CCO4)CC3)c2O1 (some centres unmarked) [Compound 524a] have recorded pEC50 that is 10 or more?
Result: false

Request: pEC50 >= 10 for Fc1cc(Cl)ccc1COc1cccc(C2CCN(Cc3nc4cc(-c5nnc(C(F)(F)F)[nH]5)ncc4n3C[C@@H]3CCO3)CC2F)n1 (some centres unmarked) [Compound 499a] ?
Result: true

====

- MEASURED_ON: GLP-1 Receptor (Homo sapiens)
- PROTOCOL_TEXT: GLP-1R agonist cAMP stimulation assay (HEK293/GLP1R/CRE-LUC cells, cAMP dynamic 2 Kit)
- EXPERIMENTAL_SETUP: HEK293/CRE-Luc cell line stably expressing the GLP-1 Receptor, 30 min at 37° C.
MEASURED_ENDPOINT: EC50 (nM)
The response must be a number in nM with no trailing unit.

>  <COMPOUND>
N#Cc1ccc(COc2cccc(N3CCN(Cc4nc5cc(-c6nnc(C(F)(F)F)[nH]6)nnc5n4C[C@@H]4CCO4)CC3)n2)c(F)c1 [Compound 493a]

>  <MEASURED_ON>
GLP-1 Receptor (Homo sapiens)

>  <RESULT_UNITS>
nM

>  <EC50>
0.044

$$$$

Request: Give the measured EC50 for CC1(c2ccc(Cl)cc2)Oc2cccc(C3CCN(Cc4nc5cc(-c6noc(=O)[nH]6)cnc5n4C[C@@H]4CCO4)CC3)c2O1 (some centres unmarked) [Compound 330a]
Result: 0.97

Request: Give EC50 for CC1(c2ccc(Cl)cc2F)Oc2cccc(C3CCN(Cc4nc5cc(-c6nnn[nH]6)c(F)cc5n4C[C@@H]4CCO4)CC3)c2O1 (some centres unmarked) [Compound 223a]
Result: 0.12

Request: Note down EC50 recorded for CC(=O)Nc1ccc2c(c1)nc(CN1CCC(c3cccc4c3OC(C)(c3ccc(Cl)cc3F)O4)CC1)n2C[C@@H]1CCO1 (some centres unmarked) [Compound 115a]
Result: 1.17

Request: Please list EC50 recorded for the compound O=c1[nH]ccn1-c1ccc2c(c1)nc(CN1CCC(c3cccc(OCc4ccc(Cl)cc4F)n3)CC1)n2C[C@@H]1CCO1 [Compound 122a]
Result: 2.4

Request: Please list EC50 recorded for the compound O=c1[nH]c(-c2cc3nc(CN4CC=C(c5ccc(F)c(OCc6ccc(Cl)cc6F)c5)CC4)n(C[C@@H]4CCO4)c3cn2)no1 [Compound 299a]
Result: 0.26

Request: Provide only the value of recorded EC50 for CC1(c2ccc(Cl)cc2F)Oc2cccc(C3CCN(Cc4nc5cc(-c6nc(Br)ns6)ccc5n4C[C@@H]4CCO4)CC3)c2O1 (some centres unmarked) [Compound 409a]
Result: 6.5

Request: For O=C(Nc1ccc2c(c1)nc(CN1CCC(c3cccc(OCc4ccc(Cl)cc4F)n3)CC1)n2C[C@@H]1CCO1)C1CCC2(CCC2)CO1 (some centres unmarked) [Compound 197a] , write its EC50.
Result: 4.3

Request: State, in one line, measured EC50 of O=C(Nc1ccc2c(c1)nc(CN1CCC(c3cccc(OCc4ccc(Cl)cc4F)n3)CC1)n2C[C@@H]1CCO1)C1(C2CC2)CCCO1 (some centres unmarked) [Compound 199a]
Result: 7.4

Request: Retrieve EC50 measured for C[C@]1(c2ccc(Cl)cc2F)Oc2cccc(C3CCN(Cc4nc5cc(-c6nnc(C7CC7)[nH]6)ccc5n4C[C@@H]4CCO4)CC3)c2O1 [Compound 283a] and print it.
Result: 0.1

Request: Assign EC50 to the following record: O=C(Nc1ccc2c(c1)nc(CN1CCC(c3cccc(OCc4ccc(Cl)cc4F)n3)CC1)n2C[C@@H]1CCO1)C(F)(F)F [Compound 167a]
Result: 1.1

====

- MEASURED_ON: UniProt P43220
- PROTOCOL_TEXT: GLP-1R agonist cAMP stimulation assay (HEK293/GLP1R/CRE-LUC cells, cAMP dynamic 2 Kit)
- EXPERIMENTAL_SETUP: HEK293/CRE-Luc cell line stably expressing the GLP-1 Receptor, 30 min at 37° C.
Consider the cut-off 500 pM. If the recorded EC50 is strictly smaller, the label is 1; if not, the label is 0.

Sample answers from the record:
>  <MOLECULE>
CS(=O)(=O)Nc1ccc2c(c1)nc(CN1CCC(c3cccc(OCc4ccc(Cl)cc4F)n3)CC1)n2C[C@@H]1CCO1 [Compound 108a]

>  <ASSIGNED_CLASS>
0

$$$$
>  <MOLECULE>
CC1(c2ccc(Cl)cn2)Oc2cccc(C3CCN(Cc4nc5cc(-c6nnc(C(F)(F)F)[nH]6)ccc5n4C[C@@H]4CCO4)CC3)c2O1 (stereo partly shown) [Compound 257a]

>  <ASSIGNED_CLASS>
1

$$$$
>  <MOLECULE>
Cc1nnc(-c2ccc3c(c2)nc(CN2CCC(c4cccc5c4O[C@@](C)(c4ccc(C#N)cc4F)O5)CC2)n3C[C@@H]2CCO2)[nH]1 [Compound 410a]

>  <ASSIGNED_CLASS>
1

$$$$

Request: Would you kindly verify if EC50 of CC1(c2ccc(Cl)cc2F)Oc2ccc(F)c(C3CCN(Cc4nc5cc(-c6nnc(C(F)(F)F)[nH]6)ncc5n4C[C@@H]4CCO4)CC3)c2O1 (stereo partly shown) [Compound 458a] is strictly less than 500 pM?
Result: 1

Request: Just wondering, is EC50 of CC1(c2ccc(Cl)cc2F)Oc2cccc(C3CCN(Cc4nc5cc(-c6noc(=O)[nH]6)ccc5n4C[C@@H]4CCO4)CC3)c2O1 (single isomer, unassigned) [Compound 239b] below 500 pM?
Result: 1

Request: Say whether its EC50 is strictly beneath 500 pM. Entry: O=C(Nc1ccc2c(c1)nc(CN1CCC(c3cccc(OCc4ccc(Cl)cc4F)n3)CC1)n2C[C@@H]1CCO1)C1CC12CCC2 (stereo partly shown) [Compound 193a]
Result: 1

Request: Please let me know if O=C(Nc1ccc2c(c1)nc(CN1CCC(c3cccc(OCc4ccc(Cl)cc4F)n3)CC1)n2C[C@@H]1CCO1)C1CC1 [Compound 103a] shows EC50 below 500 pM.
Result: 1

Request: Check if EC50 falls below 500 pM for CC1(c2ccc(Cl)cc2F)Oc2cccc(C3CCN(Cc4nc5cc(-c6nnn[nH]6)ncc5n4C[C@@H]4CCO4)CC3)c2O1 (stereo partly shown) [Compound 218a] .
Result: 1

Request: Does O=C1OCCN1c1ccc2c(c1)nc(CN1CCC(c3cccc(OCc4ccc(Cl)cc4F)n3)CC1)n2C[C@@H]1CCO1 [Compound 120a] have EC50 strictly under 500 pM?
Result: 0

Request: Problem: For the molecule Cc1nnc(-c2ccc3c(c2)nc(CN2CCC(c4cccc5c4O[C@@](C)(c4ccc(C(N)=O)cc4F)O5)CC2)n3C[C@@H]2CCO2)[nH]1 [Compound 410b] , is EC50 under 500 pM?
Result: 1

Request: Is EC50 of CC1(c2ccc(Cl)cn2)Oc2cccc(C3CCN(Cc4nc5cc(-c6noc(=O)[nH]6)cnc5n4C[C@@H]4CCO4)CC3)c2O1 (stereo partly shown) [Compound 332a] strictly below 500 pM?
Result: 0

Request: Take the molecule Cc1nnc(-c2cc3nc(CN4CCC(c5cccc6c5O[C@@](C)(c5ccc(Cl)cc5F)O6)CC4)n(C[C@@H]4CCO4)c3nn2)[nH]1 [Compound 280a] and say whether its EC50 is less than 500 pM.
Result: 1

Request: Here's an entry: CO[C@H](C)Cn1c(CN2CCC(c3cccc4c3O[C@@](C)(c3ccc(Cl)cc3F)O4)CC2)nc2cc(-c3nnc(C(F)(F)F)[nH]3)nnc21 [Compound 452a] . Is its EC50 below 500 pM?
Result: 1

Request: Is EC50 of CC(C(=O)Nc1ccc2c(c1)nc(CN1CCC(c3cccc(OCc4ccc(Cl)cc4F)n3)CC1)n2C[C@@H]1CCO1)n1ccnc1 (stereo partly shown) [Compound 195a] strictly below 500 pM?
Result: 0

Request: Does the reported EC50 of the following molecule sit strictly below 500 pM? C[C@H]1CN(c2ncc(F)c(OCc3ccc(Cl)cc3F)n2)CCN1Cc1nc2cc(-c3nnc(C(F)(F)F)[nH]3)nnc2n1C[C@@H]1CCO1 [Compound 512a]
Result: 1

Request: A record lists CCc1ccc(C(=O)Nc2ccc3c(c2)nc(CN2CCC(c4cccc(OCc5ccc(Cl)cc5F)n4)CC2)n3C[C@@H]2CCO2)cn1 [Compound 174a] . Is its EC50 below 500 pM?
Result: 0

Request: EC50 under 500 pM? Item: Cc1ccnn1C(C)C(=O)Nc1ccc2c(c1)nc(CN1CCC(c3cccc(OCc4ccc(Cl)cc4F)n3)CC1)n2C[C@@H]1CCO1 (stereo partly shown) [Compound 185a]
Result: 0

Request: Answer whether the molecule CCC(=O)Nc1ccc2c(c1)nc(CN1CCC(c3cccc(OCc4ccc(Cl)cc4F)n3)CC1)n2C[C@@H]1CCO1 [Compound 102a] has EC50 strictly less than 500 pM
Result: 0

Request: Just wondering, is EC50 of N#Cc1ccc(COc2nc(C3CCN(Cc4nc5cc(-c6nnc(C(F)(F)F)[nH]6)ncc5n4C[C@@H]4CCO4)CC3)ncc2F)c(F)c1 [Compound 509a] below 500 pM?
Result: 1
